system: tobacco leaves; assay: Effect of peptide infiltration on tobacco leaves (phytotoxicity); format: in vivo; conditions: 100 μL infiltrated into mesophyll, lesion diameter 48 h after infiltration, at least three leaves; ± confidence interval (α = 0.05)
Residues, ends and D or L forms follow the SMILES beside them. *: point of attachment. Butyryl = CCCC(=O)*
Mark Condition met only when Size of the lesions in infiltrated tobacco leaves at 250 μM stays strictly below 1 cm. Values equal to the cut-off are Condition not met.

- compound: "CC[C@H](C)[C@H](NC(=O)[C@H](CCCCN)NC(=O)[C@H](CCCCN)NC(=O)[C@H](Cc1ccccc1)NC(=O)[C@H](CC(C)C)NC(=O)[C@H](CCCCN)NC(=O)[C@@H](N)CCCCN)C(=O)N[C@@H](CC(C)C)C(=O)N[C@@H](CCCCN)C(=O)N[C@@H](Cc1ccc(O)cc1)C(=O)N[C@@H](CC(C)C)C(N)=O [BP100, reference compound]"
  qualitative-label: "Condition not met"
- compound: "CCCC(=O)NCCCC[C@H](NC(=O)[C@@H](NC(=O)[C@H](CCCCN)NC(=O)[C@H](CCCCN)NC(=O)[C@H](Cc1ccccc1)NC(=O)[C@H](CC(C)C)NC(=O)[C@H](CCCCN)NC(=O)[C@H](CCCCN)NC(C)=O)[C@@H](C)CC)C(=O)N[C@@H](CCCCN)C(=O)N[C@@H](Cc1ccc(O)cc1)C(=O)N[C@@H](CC(C)C)C(N)=O [BP387, reference compound] (Ac-KKLFKKIK(Butyryl)KYL-NH2)"
  qualitative-label: "Condition met"
- compound: "CC[C@H](C)[C@H](NC(=O)[C@H](CCCCN)NC(=O)[C@H](CCCCN)NC(=O)[C@H](Cc1ccccc1)NC(=O)[C@H](CC(C)C)NC(=O)[C@H](CCCCN)NC(=O)[C@@H](N)CCCCN)C(=O)N[C@@H](CC(C)C)C(=O)N[C@@H](CCCCN)C(=O)N[C@@H](CCCCN)C(=O)N[C@@H](CC(C)C)C(N)=O [BP16, reference compound]"
  qualitative-label: "Condition met"
- compound: "CC[C@H](C)[C@H](NC(=O)[C@H](CCCCN)NC(=O)[C@H](CCCCN)NC(=O)[C@@H](Cc1ccccc1)NC(=O)[C@H](CC(C)C)NC(=O)[C@H](CCCCN)NC(=O)[C@@H](N)CCCCN)C(=O)N[C@@H](CC(C)C)C(=O)N[C@@H](CCCCN)C(=O)N[C@@H](Cc1ccc(O)cc1)C(=O)N[C@@H](CC(C)C)C(N)=O [BP143, reference compound]"
  qualitative-label: "Condition met"

* * *

test system: tobacco leaves; test: Effect of peptide infiltration on tobacco leaves (phytotoxicity); format: in vivo; settings: 100 μL infiltrated into mesophyll, lesion diameter 48 h after infiltration, at least three leaves; ± confidence interval (α = 0.05)
Non-standard residues stand in square brackets, D forms with d. Residues, ends and D or L forms follow the SMILES beside them. *: point of attachment. Butyryl = CCCC(=O)*
Catalogue of Size of the lesions in infiltrated tobacco leaves at 150 μM values
property-measured: Size of the lesions in infiltrated tobacco leaves at 150 μM (cm)

- compound: "CCCC(=O)NCCCC[C@H](NC(=O)[C@@H](NC(=O)[C@H](CCCCN)NC(=O)[C@H](CCCCN)NC(=O)[C@H](Cc1ccccc1)NC(=O)[C@H](CC(C)C)NC(=O)[C@H](CCCCN)NC(=O)[C@H](CCCCN)NC(C)=O)[C@@H](C)CC)C(=O)N[C@@H](CCCCN)C(=O)N[C@@H](Cc1ccc(O)cc1)C(=O)N[C@@H](CC(C)C)C(N)=O [BP387, reference compound] (Ac-KKLFKKIK(Butyryl)KYL-NH2)"
  unit-name: "cm"
  numeric-value: 0.84
- compound: "CCCC(=O)NCCCC[C@H](NC(=O)[C@H](CCCCN)NC(=O)[C@H](CC(C)C)NC(=O)[C@@H](NC(=O)[C@H](CCCCN)NC(=O)[C@H](CCCCN)NC(=O)[C@@H](Cc1ccccc1)NC(=O)[C@H](CC(C)C)NC(=O)[C@H](CCCCN)NC(=O)[C@H](CCCCN)NC(C)=O)[C@@H](C)CC)C(=O)N[C@@H](CC(C)C)C(N)=O [BP475, reference compound] (Ac-KKL[dF]KKILKK(Butyryl)L-NH2)"
  unit-name: "cm"
  numeric-value: 0.70
- compound: "CC[C@H](C)[C@H](NC(=O)[C@H](CCCCN)NC(=O)[C@H](CCCCN)NC(=O)[C@@H](Cc1ccccc1)NC(=O)[C@H](CC(C)C)NC(=O)[C@H](CCCCN)NC(=O)[C@@H](N)CCCCN)C(=O)N[C@@H](CC(C)C)C(=O)N[C@@H](CCCCN)C(=O)N[C@@H](Cc1ccc(O)cc1)C(=O)N[C@@H](CC(C)C)C(N)=O [BP143, reference compound]"
  unit-name: "cm"
  numeric-value: 0.37
- compound: "CC[C@H](C)[C@H](NC(=O)[C@H](CCCCN)NC(=O)[C@H](CCCCN)NC(=O)[C@H](Cc1ccccc1)NC(=O)[C@H](CC(C)C)NC(=O)[C@H](CCCCN)NC(=O)[C@@H](N)CCCCN)C(=O)N[C@@H](CC(C)C)C(=O)N[C@@H](CCCCN)C(=O)N[C@@H](CCCCN)C(=O)N[C@@H](CC(C)C)C(N)=O [BP16, reference compound]"
  unit-name: "cm"
  numeric-value: 0.16
